- Tgt: Orexin/Hypocretin receptor type 1 (Homo sapiens, UniProt O43613)
- Sequence (O43613 whole entry): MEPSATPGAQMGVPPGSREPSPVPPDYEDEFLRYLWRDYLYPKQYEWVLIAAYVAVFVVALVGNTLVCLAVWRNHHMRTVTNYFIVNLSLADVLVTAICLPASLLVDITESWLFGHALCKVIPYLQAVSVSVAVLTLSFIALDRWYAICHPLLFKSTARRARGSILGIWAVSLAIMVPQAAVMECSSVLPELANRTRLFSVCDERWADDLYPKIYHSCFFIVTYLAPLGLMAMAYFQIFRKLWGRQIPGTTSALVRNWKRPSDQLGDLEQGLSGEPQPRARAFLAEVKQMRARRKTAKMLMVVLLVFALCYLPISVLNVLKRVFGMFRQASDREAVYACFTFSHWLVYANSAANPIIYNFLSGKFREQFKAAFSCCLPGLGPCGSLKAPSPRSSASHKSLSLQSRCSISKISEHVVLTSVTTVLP
- Experiment notes: Binding affinity to human OX1R expressed in HEK-293 cells assessed as inhibition of orexin A-induced calcium accumulation by FLIPR assay
- Format: cell-based, HEK293
Readout kind: Ki
Mention the unit after the number when you answer.

Query :: // map `Cc1ncc(OC[C@@]2(c3cccc(F)c3)C[C@H]2C(=O)Nc2ccc(F)cn2)c(C)n1` to recorded Ki (system: Orexin/Hypocretin receptor type 1 (Homo sapiens, UniProt O43613))
Result :: 5.7 nM
